What T/C was measured for each of the following?
Test system: CD2F1 mice, L1210 leukemia ip, survival T/C
assay.method.text: NCI In Vivo Anticancer Drug Screen. Data for tumor model L1210 Leukemia (intraperitoneal) in CD2F1 (CDF1) mice
setup.conditions: endpoint: mean survival time; dose: 200.0 mg/kg/injection; schedule: Q04DX002 (ip); vehicle: saline with Tween-80; higher = longer survival
Procedure: The antitumor activity of compounds was measured in mice bearing transplantable tumors. Survival or tumor size were measured and the results are expressed as the measurement made in the treated group (T) divided by the measurement made in the vehicle treated control group (C). The tumor model used in this assay is L1210 Leukemia (intraperitoneal) in CD2F1 (CDF1) mice
Toxic doses and inconclusive results are not listed.

[[record]]
molecule_smiles = "O=C(NNC(=S)Nc1cccc(C(F)(F)F)c1)c1ccncc1"
result = "105 % of control"

[[record]]
molecule_smiles = "COC(=O)c1cncn1C1c2ccccc2-c2ccccc21"
result = "95 % of control"


Quick one: give me T/C for each item below, same order please.
1. CCC(=O)OCc1cc2ccccc2c(-c2c(O)c(CN3CCOCC3)cc3ccccc23)c1O
2. O=[N+]([O-])Nc1ccc(C(c2ccc(N[N+](=O)[O-])cc2)c2ccc([N+](=O)[O-])cc2)cc1
3. O=C(NCCCl)C(=O)NCCCl

Resp:
1: 91 % of control; 2: 88 % of control; 3: 100 % of control

Req: Query (molecule): COc1ccccc1NC(=O)Oc1ccc(Cl)cc1C ; field requested: T/C
Resp: 100 % of control

* * *

System: CD2F1 mice, L1210 leukemia ip, survival T/C
assay.method.text: NCI In Vivo Anticancer Drug Screen. Data for tumor model L1210 Leukemia (intraperitoneal) in CD2F1 (CDF1) mice
setup.conditions: endpoint: mean survival time; dose: 50.0 mg/kg/injection; schedule: Q04DX003 (ip); vehicle: saline with Tween-80; higher = longer survival
Inconclusive results and toxic doses are left out.
What T/C was measured for each of the following?

[[record]]
molecule_smiles = "CC(=O)CC(C)=O.CC(=O)CC(C)=O.O.O.[Co]"
measured_attribute = "T/C"
result = "109 % of control"


Quick one: give me T/C for each item below, same order please.
1. CCOC(=O)c1cc(C)[nH]c(=O)c1C#N
2. CCC(C(=O)O)C(=O)O.[NH-]CC[NH-].[Pt+2]
3. O=C(CBr)c1cccc(OC(=O)c2ccccc2)c1
4. CCOC(=O)C1=C(C)NC(C)=C(C(=O)OCC)C1c1ccccc1
5. C[N+](C)(CC(=O)Nc1cccc(C(F)(F)F)c1)CC(=O)Nc1cccc(C(F)(F)F)c1

Resp:
1: 102 % of control; 2: 104 % of control; 3: 113 % of control; 4: 97 % of control; 5: 88 % of control

* * *

What T/C was measured for each of the following?
Test system: CD2F1 mice, L1210 leukemia ip, survival T/C
assay.method.text: NCI In Vivo Anticancer Drug Screen. Data for tumor model L1210 Leukemia (intraperitoneal) in CD2F1 (CDF1) mice
setup.conditions: endpoint: mean survival time; dose: 100.0 mg/kg/injection; schedule: Q04DX002 (ip); vehicle: saline; higher = longer survival
Experimental: The antitumor activity of compounds was measured in mice bearing transplantable tumors. Survival or tumor size were measured and the results are expressed as the measurement made in the treated group (T) divided by the measurement made in the vehicle treated control group (C). The tumor model used in this assay is L1210 Leukemia (intraperitoneal) in CD2F1 (CDF1) mice
Toxic doses and inconclusive results are not listed.

Some compounds with recorded T/C:
[[record]]
compound = "CC(=O)NC1C=C(C)C(=O)O1 (centres undefined)"
result = "102 % of control"

[[record]]
compound = "COc1cc(N=C(N)N=C(N)N)c2ncccc2c1"
result = "90 % of control"

[[record]]
compound = "C1CCN(P(N2CCCCC2)N2CCCCC2)CC1"
result = "92 % of control"


Now consider the entry below.
Req: CD2F1 mice, L1210 leukemia ip, survival T/C / T/C / O=CNc1ccc(C(=O)O)c(O)c1 : value?
Resp: 97 % of control
